Source listed as patent US20210069342A1.

Molecular target: T1, recombinant human ROR1-His (Sino Biological, 13968-H08H) (human, UniProt Q01973 30-406)
T1 construct: extracellular domain; Bought protein; also called ROR1-HIS protein; not shown: His tag
T1 sequence (Q01973 30-406): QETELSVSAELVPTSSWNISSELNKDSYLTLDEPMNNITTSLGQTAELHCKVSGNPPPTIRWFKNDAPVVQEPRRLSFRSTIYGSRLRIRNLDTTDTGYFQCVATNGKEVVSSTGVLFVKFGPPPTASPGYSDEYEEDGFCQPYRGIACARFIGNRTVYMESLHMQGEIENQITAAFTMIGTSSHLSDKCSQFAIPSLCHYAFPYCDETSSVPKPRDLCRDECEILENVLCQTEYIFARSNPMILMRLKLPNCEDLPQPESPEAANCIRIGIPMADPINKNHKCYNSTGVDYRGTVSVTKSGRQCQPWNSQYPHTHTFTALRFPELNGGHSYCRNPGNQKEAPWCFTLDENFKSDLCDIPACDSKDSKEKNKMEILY
Assay: BLI (Octet), ROR1-His on Anti-Penta-His or AR2G biosensor, IgG 30 to 0.021 nM, 1:1 fit
Item-by-item account of kon

{"Binder": "anti-ROR1 IgG antibody BA6 (antibody, V domains shown, Full IgG form (human IgG1 constant region, lambda light chain), expressed in CHO-S cells) VH: EVQLLESGGGLVQPGGSLRLSCAASGFTFSNYDMSWVRQAPGKGLEWVSAIYHSGSSKYYADSVKGRFTISRDNSKNTLYLQMNSLRAEDTAVYYCARGGNGAWDTGFDYWGQGTLVTVSS VL: QSVLTQPPSASGTPGQRVTISCSGSSSNIGSNDVSWYQQLPGTAPKLLIYYDNNRPSGVPDRFSGSKSGTSASLAISGLRSEDEADYYCGAWDDSLSGYVFGGGTKLTVLG", "kon (M⁻¹ s⁻¹)": "2.47e+06"}
{"Binder": "anti-ROR1 IgG antibody DG6 (antibody, V domains shown, Full IgG form (human IgG1 constant region, lambda light chain), expressed in CHO-S cells) VH: EVQLLESGGGLVQPGGSLRLSCAASGFTFSDYDMSWVRQAPGKGLEWVSVISPDGGSIYYADSVKGRFTISRDNSKNTLYLQMNSLRAEDTAVYYCARDVVECNMNPCSYDNAMDVWGQGTLVTVSS VL: QSVLTQPPSASGTPGQRVTISCSGSSSNIGSNYVSWYQQLPGTAPKLLIYDDSHRPSGVPDRFSGSKSGTSASLAISGLRSEDEADYYCGAWDDSLSGYVFGGGTKLTVLG", "kon (M⁻¹ s⁻¹)": "2.23e+06"}
{"Binder": "anti-ROR1 IgG antibody A2F2 (antibody, V domains shown, Full IgG form (human IgG1 constant region, lambda light chain), expressed in CHO-S cells) VH: EVQLLESGGGLVQPGGSLRLSCAASGFTFSDYYMSWVRQAPGKGLEWVSSISPDGSNTYYADSVKGRFTISRDNSKNTLYLQMNSLRAEDTAVYYCAKNLRAFDYWGQGTLVTVSS VL: QSVLTQPPPASGTPGQRVTISCSGSSSNIGSNTVYWYQQLPGTAPKLLIYANSQRPSGVPDRFSGSKSGTSASLAISGLRSEDEADYYCGSWDYSLSGYVFGGGTKLTVLG", "kon (M⁻¹ s⁻¹)": "1.53e+06"}
{"Binder": "anti-ROR1 IgG antibody C2E3 (antibody, V domains shown, Full IgG form (human IgG1 constant region, lambda light chain), expressed in CHO-S cells) VH: EVQLLESGGGLVQPGGSLRLSCAASGFTFSNYAMSWVRQAPGKGLEWVSSISHNSGSTYYADSVKGRFTISRDNSKNTLYLQMNSLRAEDTAVYYCAKFISARKSLGRSYSNGMDVWGQGTLVTVSS VL: QSVLTQPPSASGTPGQRVTISCTGSSSNIGSNDVTWYQQLPGTAPKLLIYADSKRPSGVPDRFSGSKSGTSASLAISGLRSEDEADYYCGTWDYSLSGYVFGGGTKLTVLG", "kon (M⁻¹ s⁻¹)": "5.46e+06"}
